Tested on: S. aureus clinical isolates
measurement notes: microbe, parasite or virus in culture
Type: cell-based
applied conditions: Staphylococcus aureus, MRSA, S. aureus IHMA 1586780, MRSA / VSSA; read-out: MIC
Reported values of MIC for individual entries
measured property: MIC (µg/mL)

smiles string: CC[C@H]1OC(=O)[C@H](C)[C@@H](O[C@H]2C[C@@](C)(OC)[C@@H](O)[C@H](C)O2)[C@H](C)[C@@H](O[C@@H]2O[C@H](C)C[C@H](N(C)C)[C@H]2O)[C@](C)(O)C[C@@H](C)CN(C)[C@H](C)[C@@H](O)[C@]1(C)O
system name: S. aureus clinical isolates
measured property: MIC
u: µg/mL
result: 1
//
smiles string: C[C@H]1COc2c(N3CCN(C)CC3)c(F)cc3c(=O)c(C(=O)O)cn1c23
system name: S. aureus clinical isolates
measured property: MIC
u: µg/mL
result: 16
//
smiles string: CC(=O)NC[C@H]1CN(c2ccc(N3CCOCC3)c(F)c2)C(=O)O1
system name: S. aureus clinical isolates
measured property: MIC
u: µg/mL
result: 1
//
smiles string: Cc1onc(-c2ccccc2)c1C(=O)N[C@@H]1C(=O)N2[C@@H]1SC(C)(C)[C@@H]2C(=O)O
system name: S. aureus clinical isolates
measured property: MIC
u: µg/mL
result: 32
//
smiles string: Cc1[nH]c(C(=O)Nc2nc3c(OCc4ccccc4)cc(C(=O)O)cc3s2)c(Cl)c1Cl
system name: S. aureus clinical isolates
measured property: MIC
u: µg/mL
result: 0.25
//
smiles string: Cc1[nH]c(C(=O)Nc2nc3ccc(C(=O)O)cc3s2)c(Cl)c1Cl
system name: S. aureus clinical isolates
measured property: MIC
u: µg/mL
result: 0.5
